# targetDesc: IGF2 (Homo sapiens, UniProt P01344)
# Sequence (P01344 25-91): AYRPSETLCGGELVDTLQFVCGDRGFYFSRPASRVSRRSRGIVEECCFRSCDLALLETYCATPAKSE
# measurementProtocol: SPR (Biacore T200) of recombinant IGF2R domain 11 mutants on immobilised biotinylated IGF2
# Type: binding
# Parameters: purchased GroPep
# conditionInfo: Table 1; 25° C., HBS-EP pH 7.4
metric: Kinetics koff (s⁻¹)
Could you give me the number in s⁻¹? Just the number is fine.

>>> measuredvalue("S1602H: domain 11 AB5 background + FG loop S1602H (protein) MKSNEHDDCQVTNPSTGHLFDLSSLSGRAGFTAAYAKGWGVYMSICGENENCPPGVGACFGQTRISVGKANKRLRYVDQVLQLVYKDGSPCPSKHGLSYKSVISFVCRPEAGPTNRPMLISLDKQTCTLFFSWHTPLACEQATECSV")
0.0112

Let us move to another entry and its Kinetics koff.
Query: Which Kinetics koff reading was recorded for the molecule T1633A: domain 11 HI loop mutant T1633A, probably AB5 background (protein) MKSNEHDDCQVTNPSTGHLFDLSSLSGRAGFTAAYAKGWGVYMSICGENENCPPGVGACFGQTRISVGKANKRLRYVDQVLQLVYKDGSPCPSKSGLSYKSVISFVCRPEAGPTNRPMLISLDKQACTLFFSWHTPLACEQATECSV ?
Result: 0.0196
